# maps each entry to its dTm
biological target: ~100 representative kinases (Homo sapiens); construct: Recombinant protein kinase domains with a concentration of 2 μM; assay: DSF 100 kinase selectivity screen; format: binding; conditions: Protein SRC; DSF; average of three replicates;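 further: compound tested at 20 µM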
Sequence (P12931 whole entry, the tested form may be a part): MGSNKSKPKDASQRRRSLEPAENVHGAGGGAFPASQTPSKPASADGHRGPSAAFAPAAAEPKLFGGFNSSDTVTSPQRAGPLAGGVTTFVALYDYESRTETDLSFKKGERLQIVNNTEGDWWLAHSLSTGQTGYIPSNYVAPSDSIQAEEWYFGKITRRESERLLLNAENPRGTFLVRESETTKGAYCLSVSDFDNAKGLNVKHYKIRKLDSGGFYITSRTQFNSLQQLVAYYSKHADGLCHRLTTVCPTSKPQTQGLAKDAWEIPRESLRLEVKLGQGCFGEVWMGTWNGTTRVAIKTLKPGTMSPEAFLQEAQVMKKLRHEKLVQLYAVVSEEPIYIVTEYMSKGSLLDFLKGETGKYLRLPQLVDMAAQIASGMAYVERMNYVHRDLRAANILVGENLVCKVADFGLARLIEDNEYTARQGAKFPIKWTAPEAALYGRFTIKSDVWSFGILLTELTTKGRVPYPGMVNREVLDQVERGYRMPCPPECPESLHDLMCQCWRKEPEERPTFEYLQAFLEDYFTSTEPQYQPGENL
Quick note: unit goes after the number.

Molecule	dTm
O=C(Nc1ccc(Cl)cc1)C1(C(=O)Nc2cccc(-c3c[nH]c4ncnc(N5CCOCC5)c34)c2)CC1	1.70 K
Cc1ccc(NC(=O)C2(C(=O)Nc3cccc(-c4c[nH]c5ncnc(N6CCOCC6)c45)c3)CC2)cc1	1.11 K
O=C(Nc1cc(F)cc(Br)c1)C1(C(=O)Nc2cccc(-c3c[nH]c4ncnc(N5CCOCC5)c34)c2)CC1	0.35 K
CCNc1nc(Nc2cc(F)c(C(=O)N3CCOCC3)cc2OC)ncc1C(F)(F)F	-0.11 K

Enquiry: Look up dTm for this molecule: Cc1ccc(C(=O)Nc2ccc(CN3CCN(C)CC3)c(C(F)(F)F)c2)cc1C#Cc1cnc2[nH]ncc2c1 [GZD-824, reference compound]
Return: 2.45 K

Enquiry: What does the record list as dTm for O=C(Nc1cccc(-c2c[nH]c3ncnc(N4CCOCC4)c23)c1)C1(C(=O)Nc2ccc(F)c(Br)c2F)CC1 ?
Return: -0.13 K

Enquiry: Bench note: what dTm did CC(=O)N1CCN(c2nc(Cl)nc3[nH]cc(-c4cccc(NC(=O)Nc5cc(C(C)(C)C)nn5-c5ccc(C)cc5)c4)c23)CC1 show?
Return: 0.41 K

Enquiry: Could you tell me which dTm is on file for O=C(Nc1cccc(-c2c[nH]c3ncnc(N4CCOCC4)c23)c1)C1(C(=O)Nc2ccc(F)c(Br)c2)CC1 ?
Return: -0.25 K

Enquiry: Bench note: what dTm did COc1ccc(NC(=O)C2(C(=O)Nc3cccc(-c4c[nH]c5ncnc(N6CCOCC6)c45)c3)CC2)cc1 show?
Return: 0.65 K

Enquiry: # dTm lookup, item Cc1cc(F)ccc1NC(=O)C1(C(=O)Nc2cccc(-c3c[nH]c4ncnc(N5CCOCC5)c34)c2)CC1
Return: 0.70 K

Enquiry: If you can, please state the reported dTm value of COc1cc(S(C)(=O)=O)ccc1Nc1nc(N(C)C)c2c(Cl)c[nH]c2n1 .
Return: 0.09 K

Enquiry: I am curious: what dTm value has been reported for CCSc1nc(NC)c2c(-c3cccc(NC(=O)Nc4cc(C(C)(C)C)nn4-c4ccc(C)cc4)c3)c[nH]c2n1 ?
Return: 0.61 K

Enquiry: Fill in: dTm of Cc1ccc(C(=O)Nc2ccc(CN3CCN(C)CC3)c(C(F)(F)F)c2)cc1C#Cc1c[nH]c2ncnc(N3CCOCC3)c12 is ___
Return: 1.15 K

Enquiry: dTm lookup needed for O=C(Nc1cccc(-c2c[nH]c3ncnc(N4CCOCC4)c23)c1)c1cccn(-c2ccc(F)cc2)c1=O , thanks.
Return: 1.27 K

Enquiry: Which measured dTm value corresponds to Cc1ccc(C(=O)Nc2ccc(CN3CCN(C)CC3)c(C(F)(F)F)c2)cc1C#Cc1cnc2cccnn12 [Ponatinib, reference compound] ?
Return: 1.53 K

Enquiry: // dTm lookup, key: O=C(Nc1ccc(F)cc1)C1(C(=O)Nc2cccc(-c3c[nH]c4ncnc(N5CCOCC5)c34)c2)CC1
Return: 0.49 K

Enquiry: Tell me the measured dTm of Cn1cc(-c2c[nH]c3ncnc(N4CCOCC4)c23)cc1C#N , please.
Return: -0.08 K

Enquiry: Can you look up the measured dTm of C[C@@H]1CN(c2cc(-c3n[nH]c4ccc(OC5(C)CC5)cc34)ncn2)C[C@H](C)O1 for me?
Return: 0.28 K

Enquiry: Requested field: dTm. Item: Cc1ccc(-n2nc(C(C)(C)C)cc2NC(=O)Nc2cccc(-c3c[nH]c4nc(Cl)nc(N5CCOCC5)c34)c2)cc1
Return: 0.05 K
